Values from a collection of fitness landscapes (doi:10.1016/j.celrep.2020.107928)

B1: Caulobacter ParB omega fusion; a variant is named by its letters at X, in order, B8GW30 (parent)
chain: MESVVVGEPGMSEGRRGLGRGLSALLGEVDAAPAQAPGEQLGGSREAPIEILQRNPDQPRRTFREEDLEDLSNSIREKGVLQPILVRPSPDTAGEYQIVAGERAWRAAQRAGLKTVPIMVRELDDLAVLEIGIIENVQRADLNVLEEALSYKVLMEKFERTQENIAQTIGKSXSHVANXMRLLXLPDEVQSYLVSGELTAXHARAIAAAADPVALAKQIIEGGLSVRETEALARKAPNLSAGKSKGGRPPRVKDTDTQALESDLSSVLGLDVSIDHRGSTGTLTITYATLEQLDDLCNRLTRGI

variants of: B1; assay: one-hybrid fitness for binding NBS DNA (the Noc-binding site; scaled: cognate 1, non-cognate 0); higher = stronger binding; conditions: with NBS DNA site
The full ranking holds about 81,000 sequences; the median of “one-hybrid fitness for binding NBS DNA” is about -0.1, and the highest 2% start at about 0.36. The full list was thinned out, with the highest values kept by preference.
observed property: one-hybrid fitness for binding NBS DNA

// returns reported one-hybrid fitness for binding NBS DNA for input QCAQ
≤ 0.2

// query one-hybrid fitness for binding NBS DNA value for entry RYTR
0.469

I have this variant here, FMPK , and I need its recorded one-hybrid fitness for binding NBS DNA.
0.314

Please report the recorded one-hybrid fitness for binding NBS DNA for WHGR .
≤ 0.2

Look up one-hybrid fitness for binding NBS DNA for this variant: KFKV
≤ 0.2

Quick check: one-hybrid fitness for binding NBS DNA of QRAC ?
0.391

Consider the variant QRFD and give its measured one-hybrid fitness for binding NBS DNA.
≤ 0.2

// lookup one-hybrid fitness for binding NBS DNA for QRFQ
0.226

Report one-hybrid fitness for binding NBS DNA for DYWR please.
≤ 0.2

Name the recorded one-hybrid fitness for binding NBS DNA for GEPE .
≤ 0.2

Using the record for RYTK , report its one-hybrid fitness for binding NBS DNA.
≤ 0.2

Item under review: EMNR . Reported one-hybrid fitness for binding NBS DNA?
≤ 0.2

Requested read-out: one-hybrid fitness for binding NBS DNA. Entry: RYTN
≤ 0.2

Can you look up the measured one-hybrid fitness for binding NBS DNA of VICL for me?
≤ 0.2

Need one-hybrid fitness for binding NBS DNA, item KICK
≤ 0.2

What measured one-hybrid fitness for binding NBS DNA goes with CALW ?
≤ 0.2

Query (variant): RYTS ; field requested: one-hybrid fitness for binding NBS DNA
0.453

Item under review: RYTP . Reported one-hybrid fitness for binding NBS DNA?
≤ 0.2

Look up one-hybrid fitness for binding NBS DNA: RYTC
≤ 0.2

Which value of one-hybrid fitness for binding NBS DNA has been reported for KRNK in the records?
≤ 0.2

What does the record list as one-hybrid fitness for binding NBS DNA for RREH ?
0.296

Can you look up the measured one-hybrid fitness for binding NBS DNA of QRFS for me?
0.597
